TARGET: Tyrosine-protein kinase Tec (Homo sapiens);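 further: each value is the mean of the inhibition measurements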
Sequence (whole entry): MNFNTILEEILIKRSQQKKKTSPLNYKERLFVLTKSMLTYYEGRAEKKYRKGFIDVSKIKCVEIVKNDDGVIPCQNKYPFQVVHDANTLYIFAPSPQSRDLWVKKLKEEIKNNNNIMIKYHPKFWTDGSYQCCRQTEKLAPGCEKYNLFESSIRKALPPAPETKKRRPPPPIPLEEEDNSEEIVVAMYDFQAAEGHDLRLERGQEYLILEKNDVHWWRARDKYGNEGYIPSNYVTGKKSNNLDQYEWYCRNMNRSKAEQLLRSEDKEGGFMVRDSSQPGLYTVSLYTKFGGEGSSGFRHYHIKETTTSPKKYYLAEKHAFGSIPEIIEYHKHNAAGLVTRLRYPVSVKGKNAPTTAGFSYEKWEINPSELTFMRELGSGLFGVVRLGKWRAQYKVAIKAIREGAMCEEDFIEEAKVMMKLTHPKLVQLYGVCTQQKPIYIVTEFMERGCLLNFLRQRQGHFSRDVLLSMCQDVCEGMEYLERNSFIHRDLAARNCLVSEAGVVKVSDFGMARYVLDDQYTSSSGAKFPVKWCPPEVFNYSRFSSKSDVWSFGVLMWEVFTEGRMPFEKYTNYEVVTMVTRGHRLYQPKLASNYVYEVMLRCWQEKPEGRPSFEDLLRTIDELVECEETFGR
CONDITION_SET: at 1 µM
MEASUREMENT_TYPE: inhibition (%)

> print(dat)
                                   compound  numeric.value
1  COC(=O)Nc1nc2ccc(S(=O)(=O)c3ccc(NC(=O)Nc4cc(C(F)(F)F)ccc4F)cc3)cc2[nH]1           2.49
2  [O-][S+]1CCN(Cc2ccc(-c3ccc4ncnc(Nc5ccc(OCc6cccc(F)c6)c(Cl)c5)c4c3)o2)CC1           4.55
3                CCn1c(-c2nonc2N)nc2ccccc21           7.35
4  COc1ccc2c(-c3ccnc(Nc4cccc(OC(F)(F)F)c4)n3)cnn2n1           11.9
5  COc1ccc(-c2nn3ncccc3c2-c2ccnc(Nc3ccc4c(c3)OCCO4)n2)cc1           11.9

---

TARGET: Macrophage colony-stimulating factor 1 receptor (Homo sapiens);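 further: mean inhibition of FMS, from the GSK PKIS screening set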
CONDITION_SET: at 1 µM
Each item that follows carries a reported inhibition.
MEASUREMENT_TYPE: inhibition (%)

> print(dat)
                                   compound  numeric.value
1  Cc1ccc2c(-c3ccnc(Nc4ccccc4)n3)c(-c3ccc(F)cc3)nn2n1           45.1
2  CS(=O)(=O)CCNCc1coc(-c2ccc3ncnc(Nc4ccc(OCc5ccccc5)cc4)c3c2)c1           7.42
3   Nc1nc(-c2ccc(F)cc2)c(-c2ccc3ncccc3n2)s1           7.59
4  COc1ccc(-c2oc3ncnc(N)c3c2-c2ccc(NC(=O)Nc3cc(C(F)(F)F)ccc3F)cc2)cc1           90.2
5  O=C(O[C@H]1CN[C@H](C#Cc2cc3ncnc(Nc4ccc(Cc5ccccc5)cc4)c3s2)C1)N1CCOCC1           3.66

---

Each item that follows carries a reported inhibition.
TARGET: PAS domain-containing serine/threonine-protein kinase (Homo sapiens) (UniProt Q96RG2);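 further: reported value is the mean percent inhibition of PASK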
Sequence (Q96RG2 whole entry, the tested form may be a part): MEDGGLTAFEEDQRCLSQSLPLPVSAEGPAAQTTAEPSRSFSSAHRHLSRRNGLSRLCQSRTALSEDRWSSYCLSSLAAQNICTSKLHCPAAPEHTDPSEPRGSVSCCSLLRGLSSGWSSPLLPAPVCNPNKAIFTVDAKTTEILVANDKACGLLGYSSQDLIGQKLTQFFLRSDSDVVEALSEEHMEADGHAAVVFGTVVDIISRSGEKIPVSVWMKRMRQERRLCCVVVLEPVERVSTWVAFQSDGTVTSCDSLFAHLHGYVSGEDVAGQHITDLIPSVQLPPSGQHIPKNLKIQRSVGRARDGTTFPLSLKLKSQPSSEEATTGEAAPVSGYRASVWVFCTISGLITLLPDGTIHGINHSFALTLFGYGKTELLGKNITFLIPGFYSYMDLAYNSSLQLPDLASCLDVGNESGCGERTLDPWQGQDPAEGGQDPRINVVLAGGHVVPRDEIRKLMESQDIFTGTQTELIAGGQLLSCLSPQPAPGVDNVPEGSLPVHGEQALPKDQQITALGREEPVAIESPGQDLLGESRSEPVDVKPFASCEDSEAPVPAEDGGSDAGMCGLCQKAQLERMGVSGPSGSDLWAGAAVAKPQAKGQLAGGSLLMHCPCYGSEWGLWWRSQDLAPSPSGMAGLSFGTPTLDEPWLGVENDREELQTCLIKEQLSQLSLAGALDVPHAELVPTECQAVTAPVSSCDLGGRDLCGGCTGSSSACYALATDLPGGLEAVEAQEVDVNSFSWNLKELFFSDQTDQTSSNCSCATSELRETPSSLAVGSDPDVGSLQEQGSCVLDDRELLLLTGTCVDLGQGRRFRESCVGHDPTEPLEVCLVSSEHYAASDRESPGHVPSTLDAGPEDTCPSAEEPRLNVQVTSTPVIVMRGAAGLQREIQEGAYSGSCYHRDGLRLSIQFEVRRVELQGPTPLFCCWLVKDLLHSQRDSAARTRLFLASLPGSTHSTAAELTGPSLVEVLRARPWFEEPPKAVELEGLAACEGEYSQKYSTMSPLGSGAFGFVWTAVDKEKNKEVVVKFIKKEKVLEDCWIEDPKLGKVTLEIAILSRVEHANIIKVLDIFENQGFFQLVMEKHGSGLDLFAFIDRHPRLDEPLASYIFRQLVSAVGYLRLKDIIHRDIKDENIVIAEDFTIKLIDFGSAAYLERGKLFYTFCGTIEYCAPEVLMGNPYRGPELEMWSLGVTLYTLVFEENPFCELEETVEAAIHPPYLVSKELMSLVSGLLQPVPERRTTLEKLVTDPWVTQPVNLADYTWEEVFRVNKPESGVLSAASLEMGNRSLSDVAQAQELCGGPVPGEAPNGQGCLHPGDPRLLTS
CONDITION_SET: at 1 µM
MEASUREMENT_TYPE: inhibition

> print(dat)
                                   compound  result
1  Cc1ccc2c(-c3ccnc(Nc4ccccc4)n3)c(-c3ccc(F)cc3)nn2n1  -1.64%
2  COc1ccc(-c2cc(-c3c[nH]nc3-c3ccccn3)ccn2)cc1   0.75%
3  Fc1cccc(COc2ccc(Nc3ncnc4sc(-c5ccco5)cc34)cc2Cl)c1   0.63%
4  CCn1c(-c2nonc2N)nc2cnc(Oc3cccc(NC(=O)c4ccc(N(C)C)cc4)c3)cc21   1.54%
5  c1ccc(COc2ccc(Nc3ncnc4ccc(-c5ccco5)cc34)cc2)cc1    1.6%
6          CCc1nn2ncccc2c1-c1ccnc(NC2CC2)n1   0.63%

---

TARGET: Serine/threonine-protein kinase SIK1 (Homo sapiens) (UniProt P57059);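 further: mean inhibition value from the GSK PKIS profiling set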
Sequence (P57059 whole entry): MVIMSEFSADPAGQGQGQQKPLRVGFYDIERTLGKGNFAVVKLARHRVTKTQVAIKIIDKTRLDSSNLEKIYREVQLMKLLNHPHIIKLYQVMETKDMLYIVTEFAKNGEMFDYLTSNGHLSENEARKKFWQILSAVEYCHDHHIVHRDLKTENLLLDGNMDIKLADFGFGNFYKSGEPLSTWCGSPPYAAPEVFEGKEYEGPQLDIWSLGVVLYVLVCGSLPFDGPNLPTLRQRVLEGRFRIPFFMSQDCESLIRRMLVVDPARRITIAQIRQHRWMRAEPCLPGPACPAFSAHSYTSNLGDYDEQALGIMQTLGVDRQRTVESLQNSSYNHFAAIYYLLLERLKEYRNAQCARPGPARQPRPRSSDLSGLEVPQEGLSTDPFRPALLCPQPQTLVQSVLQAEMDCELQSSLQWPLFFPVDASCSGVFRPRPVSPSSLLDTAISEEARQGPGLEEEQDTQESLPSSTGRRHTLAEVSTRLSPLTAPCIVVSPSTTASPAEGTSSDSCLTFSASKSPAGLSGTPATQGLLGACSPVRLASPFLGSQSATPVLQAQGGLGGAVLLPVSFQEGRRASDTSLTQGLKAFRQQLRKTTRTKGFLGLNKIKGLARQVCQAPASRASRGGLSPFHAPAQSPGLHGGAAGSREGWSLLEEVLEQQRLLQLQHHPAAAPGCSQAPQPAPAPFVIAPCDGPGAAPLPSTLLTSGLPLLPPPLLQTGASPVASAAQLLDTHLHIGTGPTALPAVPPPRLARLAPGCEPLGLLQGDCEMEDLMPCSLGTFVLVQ
CONDITION_SET: at 1 µM
MEASUREMENT_TYPE: inhibition (%)

> print(dat)
                                    compound                                    target  value.units  numeric.value
 1  CC(=O)NCc1cccc(C#Cc2cncnc2Nc2ccc(OCc3cccc(F)c3)c(Cl)c2)c1  Serine/threonine-protein kinase SIK1 (Homo sapiens) (UniProt P57059)            %           2.96
 2  COc1cc(Nc2nccc(Nc3ccc4c(C)n[nH]c4c3)n2)cc(OC)c1OC  Serine/threonine-protein kinase SIK1 (Homo sapiens) (UniProt P57059)            %           51.2
 3  COc1cc2c(cc1Nc1nc(Nc3ccsc3C(N)=O)c3cc[nH]c3n1)N(C(=O)CN(C)C)CCC2(C)C  Serine/threonine-protein kinase SIK1 (Homo sapiens) (UniProt P57059)            %           7.92
 4  c1cc(-c2cnn3nc(N4CCOCC4)ccc23)nc(NC2CC2)n1  Serine/threonine-protein kinase SIK1 (Homo sapiens) (UniProt P57059)            %           5.66
 5  Fc1ccc(-c2cc(-c3c[nH]nc3-c3ccccn3)ccn2)cc1  Serine/threonine-protein kinase SIK1 (Homo sapiens) (UniProt P57059)            %           8.52
 6  COc1ccc(-c2oc3ncnc(N)c3c2-c2ccc(NC(=O)Nc3cc(C(F)(F)F)ccc3F)cc2)cc1  Serine/threonine-protein kinase SIK1 (Homo sapiens) (UniProt P57059)            %           14.4
 7          CNC(=O)c1cncc(/C=C/c2ccccc2Cl)c1  Serine/threonine-protein kinase SIK1 (Homo sapiens) (UniProt P57059)            %           25.6
 8  CN1CCC(n2cnc(-c3ccc(F)cc3)c2-c2ccnc(Nc3ccccc3)n2)CC1  Serine/threonine-protein kinase SIK1 (Homo sapiens) (UniProt P57059)            %           4.66
 9  CS(=O)(=O)CCNCc1ccc(-c2ccc3ncnc(Nc4ccc(OCc5ccccc5)c(C(F)(F)F)c4)c3c2)o1  Serine/threonine-protein kinase SIK1 (Homo sapiens) (UniProt P57059)            %           6.16
10         N#Cc1c(NC(=O)CN2CCOCC2)sc2c1CCCC2  Serine/threonine-protein kinase SIK1 (Homo sapiens) (UniProt P57059)            %           6.91
11  COC(=O)Nc1nc2ccc(S(=O)(=O)c3ccc(NC(=O)Nc4cc(C(F)(F)F)ccc4F)cc3)cc2[nH]1  Serine/threonine-protein kinase SIK1 (Homo sapiens) (UniProt P57059)            %           3.12
12  COc1ccc(-c2cc(-c3c[nH]nc3-c3ccccn3)ccn2)cc1  Serine/threonine-protein kinase SIK1 (Homo sapiens) (UniProt P57059)            %           7.23
13  Cc1ccc2c(-c3ccnc(Nc4ccccc4)n3)c(-c3ccc(F)cc3)nn2n1  Serine/threonine-protein kinase SIK1 (Homo sapiens) (UniProt P57059)            %           24.1
14  COc1ccc2[nH]c3c4[nH]c5ccc(OC)cc5c4c4c(c3c2c1)C(=O)NC4=O  Serine/threonine-protein kinase SIK1 (Homo sapiens) (UniProt P57059)            %           77.2
15  CCCN(CCS(C)(=O)=O)Cc1ccc(-c2ccc3ncnc(Nc4ccc(OCc5cccc(F)c5)c(Cl)c4)c3c2)o1  Serine/threonine-protein kinase SIK1 (Homo sapiens) (UniProt P57059)            %           6.39
16  COc1ccc2c(-c3ccnc(Nc4cccc(OC(F)(F)F)c4)n3)cnn2n1  Serine/threonine-protein kinase SIK1 (Homo sapiens) (UniProt P57059)            %           12.8
17  CCn1cc(-c2ccnc3[nH]ccc23)c(-c2cccc(NC(=O)Nc3ccc(OCc4ccccc4)cc3)c2)n1  Serine/threonine-protein kinase SIK1 (Homo sapiens) (UniProt P57059)            %           3.35
18  NC(=O)c1sc(-n2cnc3ccc(C(F)(F)F)cc32)cc1OCc1ccccc1Br  Serine/threonine-protein kinase SIK1 (Homo sapiens) (UniProt P57059)            %           9.77
19  CCNC(=O)O[C@H]1CN[C@H](C#Cc2cc3ncnc(Nc4ccc(OCc5cccc(F)c5)c(Cl)c4)c3s2)C1  Serine/threonine-protein kinase SIK1 (Homo sapiens) (UniProt P57059)            %           7.09
20             COc1ccc(-c2cc3c(N)ncnc3o2)cc1  Serine/threonine-protein kinase SIK1 (Homo sapiens) (UniProt P57059)            %             12
21  FC(F)(F)c1cccc(-c2nn3ncccc3c2-c2ccnc(Nc3ccc4c(c3)OCCO4)n2)c1  Serine/threonine-protein kinase SIK1 (Homo sapiens) (UniProt P57059)            %           6.62
22  CNC(=O)c1cccc(C#Cc2cncnc2Nc2ccc(OCc3cccc(F)c3)c(Cl)c2)c1  Serine/threonine-protein kinase SIK1 (Homo sapiens) (UniProt P57059)            %           3.26
23  c1ccc(COc2ccc(Nc3ncnc4ccc(-c5ccco5)cc34)cc2)cc1  Serine/threonine-protein kinase SIK1 (Homo sapiens) (UniProt P57059)            %           7.46
24  Nc1nc(-c2cccc(Cl)c2)c(-c2ccc3ncccc3n2)s1  Serine/threonine-protein kinase SIK1 (Homo sapiens) (UniProt P57059)            %           9.29
25  CS(=O)(=O)CCNCc1coc(-c2ccc3ncnc(Nc4ccc(OCc5ccccc5)cc4)c3c2)c1  Serine/threonine-protein kinase SIK1 (Homo sapiens) (UniProt P57059)            %           8.27
26  Nc1ncc(-c2cccc(S(N)(=O)=O)c2)c2scc(-c3ccc(F)c(Cl)c3)c12  Serine/threonine-protein kinase SIK1 (Homo sapiens) (UniProt P57059)            %             61
27  CC(=O)Nc1cccc(C#Cc2cncnc2Nc2ccc(OCc3cccc(F)c3)c(Cl)c2)c1  Serine/threonine-protein kinase SIK1 (Homo sapiens) (UniProt P57059)            %           2.15
28  CC(C)COC(=O)c1ccc2c(c1)/C(=C/Nc1ccc(S(N)(=O)=O)cc1)C(=O)N2  Serine/threonine-protein kinase SIK1 (Homo sapiens) (UniProt P57059)            %           72.2
29  COC(=O)Nc1nc2ccc(Oc3ccc(NC(=O)Nc4cccc(Cl)c4)cc3)cc2[nH]1  Serine/threonine-protein kinase SIK1 (Homo sapiens) (UniProt P57059)            %           4.14
